molecular target: VEGFR-2 (Homo sapiens); experiment: Kinase inhibition assay (ELISA); type: biochemical; conditions: 1.5 µM ATP
Sequence (P35968 20-1356, species assumed): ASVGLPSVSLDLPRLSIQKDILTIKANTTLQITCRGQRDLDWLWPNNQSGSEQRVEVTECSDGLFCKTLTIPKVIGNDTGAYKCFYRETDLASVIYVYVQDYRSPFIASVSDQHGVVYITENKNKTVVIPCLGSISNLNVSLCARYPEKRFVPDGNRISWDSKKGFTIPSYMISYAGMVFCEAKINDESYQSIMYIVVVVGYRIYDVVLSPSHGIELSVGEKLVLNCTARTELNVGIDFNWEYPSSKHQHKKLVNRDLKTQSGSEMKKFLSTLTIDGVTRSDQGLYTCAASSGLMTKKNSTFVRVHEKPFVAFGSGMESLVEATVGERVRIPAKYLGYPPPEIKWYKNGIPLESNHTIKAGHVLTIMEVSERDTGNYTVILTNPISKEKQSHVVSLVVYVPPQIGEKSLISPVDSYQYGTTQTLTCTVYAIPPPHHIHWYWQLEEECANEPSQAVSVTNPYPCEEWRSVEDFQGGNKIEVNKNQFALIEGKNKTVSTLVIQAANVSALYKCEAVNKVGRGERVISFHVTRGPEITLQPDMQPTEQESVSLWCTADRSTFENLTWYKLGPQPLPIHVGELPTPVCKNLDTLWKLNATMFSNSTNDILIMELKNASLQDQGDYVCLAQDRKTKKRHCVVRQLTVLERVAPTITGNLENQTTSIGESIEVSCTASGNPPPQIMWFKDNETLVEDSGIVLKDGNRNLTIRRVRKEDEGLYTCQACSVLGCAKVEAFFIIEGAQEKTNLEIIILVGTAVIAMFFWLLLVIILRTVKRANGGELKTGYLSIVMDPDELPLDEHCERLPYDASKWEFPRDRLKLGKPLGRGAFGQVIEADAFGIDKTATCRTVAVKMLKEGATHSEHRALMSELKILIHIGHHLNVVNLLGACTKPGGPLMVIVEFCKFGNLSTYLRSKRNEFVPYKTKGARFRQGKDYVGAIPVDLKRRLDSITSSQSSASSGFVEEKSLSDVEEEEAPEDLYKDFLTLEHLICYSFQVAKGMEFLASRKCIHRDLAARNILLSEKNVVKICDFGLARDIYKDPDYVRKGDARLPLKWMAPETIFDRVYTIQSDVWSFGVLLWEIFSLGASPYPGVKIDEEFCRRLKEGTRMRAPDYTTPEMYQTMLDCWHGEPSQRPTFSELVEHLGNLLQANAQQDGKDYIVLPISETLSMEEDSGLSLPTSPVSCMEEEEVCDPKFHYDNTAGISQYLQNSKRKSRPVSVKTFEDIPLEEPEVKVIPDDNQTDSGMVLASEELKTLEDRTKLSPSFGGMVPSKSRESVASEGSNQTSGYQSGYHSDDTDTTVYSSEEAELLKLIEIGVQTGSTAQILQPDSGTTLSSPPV
Observed Property: IC50

Solved cases below.
Compound: c1ccc(-c2cnc(Nc3cc(C4CCCNC4)ccn3)s2)cc1 (stereo not drawn)
IC50: 32 nM
//
Compound: OCCN1CCC(CO)(c2cccc(Nc3ncc(-c4ccccc4)s3)n2)CC1
IC50: > 10000 nM
//
Compound: OCCN1CCC(c2ccnc(Nc3ncc(-c4ccc(F)c(F)c4)s3)c2)CC1
IC50: > 10 nM
//
Compound: COC(=O)C1CC(Cc2ccnc(Nc3ncc(-c4ccccc4)s3)c2)CC1N (stereo not drawn)
IC50: > 10 nM
//
Compound: CC(=O)N1CCOCC(Cc2ccnc(Nc3ncc(-c4ccc(F)cc4)s3)c2)C1 (stereo not drawn)
IC50: > 10 nM

Just so you know, measured IC50 for CC(=O)N1CCCC(Cc2cccc(Nc3ncc(-c4ccc(F)cc4)s3)n2)CC1 (stereo not drawn) came out at > 100 nM
